Origin of values: patent US20260109732A1

Assay: Encapsulation of mRNA nanoparticles with lipid amines using Ribogreen assay
Format: physicochemical
Settings: CFTR mRNA nanoparticle with lipid amine
Structures can show the parent of a compound that is named as a salt.
For each record, write down the corresponding % Encapsulation (Ribogreen).
Answers are plain numbers, in %.

See these solved cases before continuing.
| compound | % Encapsulation (Ribogreen), % |
| --- | --- |
| CC[C@H](CC[C@@H](C)[C@H]1CC[C@H]2[C@@H]3CC=C4C[C@@H](OC(=O)N(CCCC(C)(C)N)CCC(C)(C)N)CC[C@]4(C)[C@H]3CC[C@]12C)C(C)C [SA149, dihydrochloride] | 99.9 |
| CC[C@H](CC[C@@H](C)[C@H]1CC[C@H]2[C@@H]3CC=C4C[C@@H](OC(=O)CCC(=O)N(CCCCNCCC(C)(C)N)CCC(C)(C)N)CC[C@]4(C)[C@H]3CC[C@]12C)C(C)C [SA161, trihydrochloride] | 99.6 |
| CC(C)CCC[C@@H](C)[C@H]1CC[C@H]2[C@@H]3CC=C4C[C@@H](OC(=O)CCCC(=O)N(CCCCNCCC(C)(C)N)CCC(C)(C)N)CC[C@]4(C)[C@H]3CC[C@]12C [SA121, trihydrochloride] | 97.4 |

Field: % Encapsulation (Ribogreen). Fill in for each record below.
1. CC(C)CCC[C@@H](C)[C@H]1CC[C@H]2[C@@H]3CC=C4C[C@@H](SSCCC(=O)N(CCCC(C)(C)N)CCC(C)(C)N)CC[C@]4(C)[C@H]3CC[C@]12C [SA145, dihydrochloride]
2. CC(C)CCC[C@@H](C)[C@H]1CC[C@H]2[C@@H]3CC=C4C[C@@H](OC(=O)N(CCCCNCC(F)CN)CC(F)CN)CC[C@]4(C)[C@H]3CC[C@]12C (some centres unmarked) [SA87, trihydrochloride]
3. CC[C@H](CC[C@@H](C)[C@H]1CC[C@H]2[C@@H]3CC=C4C[C@@H](OC(=O)CCC(=O)N(CCCC(C)(C)N)CCC(C)(C)N)CC[C@]4(C)[C@H]3CC[C@]12C)C(C)C [SA167, dihydrochloride]
4. C/C(=C/CCC(C)C)[C@H]1CC[C@H]2[C@@H]3CC=C4C[C@@H](OC(=O)N(CCCN)CCCCNCCCN)CC[C@]4(C)[C@H]3CC[C@]12C
5. CC[C@H](CC[C@@H](C)[C@H]1CC[C@H]2[C@@H]3CC=C4C[C@@H](OC(=O)CCCC(=O)N(CCCCNCCC(N)(CC)CC)CCC(N)(CC)CC)CC[C@]4(C)[C@H]3CC[C@]12C)C(C)C [SA182, trihydrochloride]

99.8
99.5
100
99.8
98.0
